# pIC50 listing for each entry below
System Under Test: porcine gastric H^+/K^+-ATPase (Sus scrofa)
Construct: prepared from mucous membrane in fresh porcine stomachs by homogenization
Sequence (P19156 2-1034 limits assumed): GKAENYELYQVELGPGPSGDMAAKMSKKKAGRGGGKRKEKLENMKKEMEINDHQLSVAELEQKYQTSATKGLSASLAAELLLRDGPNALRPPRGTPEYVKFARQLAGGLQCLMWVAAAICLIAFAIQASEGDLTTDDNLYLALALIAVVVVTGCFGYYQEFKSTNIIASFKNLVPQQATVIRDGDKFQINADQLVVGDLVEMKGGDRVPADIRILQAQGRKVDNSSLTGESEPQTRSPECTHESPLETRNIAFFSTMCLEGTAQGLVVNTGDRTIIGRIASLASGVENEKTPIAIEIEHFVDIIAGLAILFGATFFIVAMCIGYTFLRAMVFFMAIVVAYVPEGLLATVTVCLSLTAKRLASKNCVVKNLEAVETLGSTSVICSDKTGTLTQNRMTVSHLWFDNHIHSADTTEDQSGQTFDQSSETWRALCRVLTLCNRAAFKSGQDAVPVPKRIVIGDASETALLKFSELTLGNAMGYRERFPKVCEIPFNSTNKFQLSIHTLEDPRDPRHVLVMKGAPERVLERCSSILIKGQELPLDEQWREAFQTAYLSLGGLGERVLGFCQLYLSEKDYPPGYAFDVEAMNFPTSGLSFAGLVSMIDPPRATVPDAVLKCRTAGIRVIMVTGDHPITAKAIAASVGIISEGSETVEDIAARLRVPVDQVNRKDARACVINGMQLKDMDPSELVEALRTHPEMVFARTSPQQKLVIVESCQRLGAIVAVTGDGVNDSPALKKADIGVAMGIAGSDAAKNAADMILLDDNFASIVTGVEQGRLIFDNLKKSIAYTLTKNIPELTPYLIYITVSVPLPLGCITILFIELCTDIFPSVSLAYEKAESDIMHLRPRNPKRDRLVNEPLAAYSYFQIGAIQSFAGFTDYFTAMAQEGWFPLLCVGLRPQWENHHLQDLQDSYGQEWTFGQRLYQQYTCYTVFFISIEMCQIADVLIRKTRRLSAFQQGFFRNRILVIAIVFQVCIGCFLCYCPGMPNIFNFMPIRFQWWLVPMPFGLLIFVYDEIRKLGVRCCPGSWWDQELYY
Sequence (P18434 whole entry partner): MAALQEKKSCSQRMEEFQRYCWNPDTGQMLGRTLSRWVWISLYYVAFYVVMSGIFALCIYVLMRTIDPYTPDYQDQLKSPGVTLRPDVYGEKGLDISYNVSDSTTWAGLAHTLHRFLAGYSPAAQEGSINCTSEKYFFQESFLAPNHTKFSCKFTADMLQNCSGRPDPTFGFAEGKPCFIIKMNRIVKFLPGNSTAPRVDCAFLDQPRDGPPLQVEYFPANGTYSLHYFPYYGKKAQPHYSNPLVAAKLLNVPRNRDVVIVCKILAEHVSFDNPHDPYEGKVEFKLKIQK
Test Details: Ion-tight porcine gastric H+/K+-ATPase inhibition
Experimental Setup: ion-tight porcine gastric vesicles, 150 mM KCl, valinomycin, pH 7.4, 37° C., 30 minutes
Scale for pIC50: -log10 of concentration given in mol/L; no unit attached.

The cases that follow already have their pIC50 on record.
Cc1nc2c(OC3CCOc4cc(F)cc(F)c43)cc(C(=O)N(C)CCO)cc2[nH]1 (stereo not shown) [Example 7]: 5.96
Cc1nc2c(OC3CCOc4cc(F)cc(C)c43)cc(C(=O)N(C)C)cc2[nH]1 (stereo not shown) [Example 21]: 7.09
Cc1nc2c(OC3CCOc4cc(F)cc(F)c43)cc(C(=O)N(C)C)cc2[nH]1 (racemic) [Example 1]: 6.72

Now let's try a different one.
Fill in pIC50 for record Cc1nc2c(OC3CCOc4cc(F)cc(F)c43)cc(C(=O)N3CCCC3)cc2[nH]1 (single isomer, unassigned; (+)) [Example 5] 7.49

Data origin, for the record: patent US7723321B2
